pEC50 for assorted molecules
tested on: Human immunodeficiency virus 1; experiment: Antiviral activity against HIV1 HxB2 harboring integrase A124/T125 mutant by cell based luciferase reporter gene assay; format: functional, organism-based; details: Human immunodeficiency virus 1, HxB2
Schema: pEC50 number; meaning minus log10 of the concentration expressed in molar units.

Answered cases to consult:
{"columns": ["MOLECULE", "pEC50"],
 "data": [
  ["Cc1nc2ccc(Br)cc2c(-c2ccc(Cl)cc2)c1[C@H](OC(C)C)C(=O)O", 6.89],
  ["CCCC(C(=O)O)c1c(C)nc2ccc(Br)cc2c1-c1ccc(Cl)cc1 (stereo not drawn)", 6.04]
]}

Q) For the molecule "Cc1nc2ccc(Br)cc2c(-c2ccc(Cl)cc2)c1[C@H](OC(C)(C)C)C(=O)O" , what pEC50 is on record?
A) 7.11
